Exercise: state measured z-score for each of the compounds provided.
Experiment: budding yeast growth modifiers under rapamycin – strain BY4716, OD600, 96 h, primary screen (AID 1091); also: test concentration not given here
Conditions: S. cerevisiae BY4716 + rapamycin, higher = more signal, called active from +8 up or from −8 down
Numbers only.

COMPOUND: COc1ccc([C@H]2C[C@H]3C(Br)=C[C@@]2(CO)C(=O)[C@]32CO2)cc1
RESULT TYPE: z-score
REPORTED MEASUREMENT: 0.241
--
COMPOUND: CC(CO)N1C(=O)[C@@H]2C3C(=O)OCCC/C=C\[C@H]3OC23C=CCN(CCN2CCOCC2)C(=O)[C@@H]13 (stereo not given in full)
RESULT TYPE: z-score
REPORTED MEASUREMENT: -0.215
--
COMPOUND: O=C1C2C=CC(C(O)c3cc(C(F)(F)F)cc(C(F)(F)F)c3)N(Nc3ccccc3)C2C(=O)N1c1ccccc1 (stereo not given)
RESULT TYPE: z-score
REPORTED MEASUREMENT: 3.15
--
COMPOUND: C[N+](C)(C)CCCC[C@@H]1NC(=O)[C@H]2C[C@@H](C(=O)NCCCCCCNC(=O)CS)[C@@H](c3ccc(O)cc3)N2C1=O
RESULT TYPE: z-score
REPORTED MEASUREMENT: -0.344

Now turn to the next compound.
Query: Requested read-out: z-score. Entry: CC(C)C(=C=CC[C@H](O)c1ccc(CO)o1)CCO
Reply: -0.536

====

Tested on: Chordin-like protein 2 (CHRDL2)
Experiment: compounds binding chordin-like 2 – biochemical, small-molecule microarray, 635 nm fluorescence, primary screen (AID 1126);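 also: printed compound slides probed with Chrdl2 protein at 4 µg/mL for 1 h at 4 C; score merges 667 nm emission intensity with signal to noise over three replicate slides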
Settings: fluorescence 635 nm, higher = more signal
Exercise: state measured composite z-score for each of the molecules provided.
Numbers only.

Below are worked cases with known answers.
MOLECULE: COc1ccc(CCNC(=O)[C@@]2(C)c3ccccc3C(=O)N(c3ccc(C)cn3)[C@H]2c2ccc(CO)cc2)cc1
REPORTED MEASUREMENT: -1.02
//
MOLECULE: CCCCCN1CC=CC23O[C@@H]4C=CCOC(=O)[C@@H]4[C@H]2C(=O)N(C(C)CO)[C@@H]3C1=O (some centres undefined)
REPORTED MEASUREMENT: -0.811
//
MOLECULE: CCCCC(=C=CC[C@@H](O)c1cccc(OCCO)c1)C[C@@H](O)c1ccccn1
REPORTED MEASUREMENT: 0.263
//
MOLECULE: C=CCN1Cc2ccccc2[C@@H]2OC(c3ccc(OCCCO)cc3)=N[C@]2(CCS(=O)(=O)c2ccccc2)C1=O
REPORTED MEASUREMENT: 1.03
//
MOLECULE: C=CC[C@]1(C(N)=O)N=C(c2ccc(OCCCO)cc2)O[C@H]1c1ccccc1
REPORTED MEASUREMENT: 0.204
//
MOLECULE: [N-]=[N+]=Nc1ccccc1C[C@@]1(C(=O)N2CCCCC2)N=C(c2ccc(OCCCO)cc2)O[C@@H]1c1ccccc1N=[N+]=[N-]
REPORTED MEASUREMENT: -0.501
//
MOLECULE: [N-]=[N+]=Nc1ccccc1C[C@]1(C(=O)NCC(O)CO)N=C(c2ccc(OCCCO)cc2)O[C@H]1c1ccccc1 (some centres undefined)
REPORTED MEASUREMENT: -1.5
//
MOLECULE: CCCCN1CC=CC23O[C@@H]4C=CCCOC(=O)C4[C@H]2C(=O)N(CCCCCO)[C@@H]3C1=O (some centres undefined)
REPORTED MEASUREMENT: -0.882

Now turn to the next molecule.
Query: Requested read-out: composite z-score. Entry: COc1ccc(NN2C(C(O)c3ccc(N(C)C)cc3)C=CC3C(=O)N(C4CCCCC4)C(=O)C32)cc1 (centres undefined)
Reply: 0.212

====

Experiment: probe aEGFR binding to arrayed compounds – biochemical, biotinylated probe, 635/667 nm fluorescence, primary screen (AID 1097);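 also: probe is a biotinylated anti-EGFR antibody binding compounds printed on slides; score combines fluorescence near 667 nm and signal to noise of each spot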
Settings: small-molecule microarray, higher = more signal
# cutoff -0.07 applies to composite z-score; >= gives true (1), < gives false (0)

// known answers, use as guide
COMPOUND: COc1cc2c(cc1O)C(c1cccs1)N(Cc1ccc([N+](=O)[O-])o1)CC2 (stereo not given)
CLASS ASSIGNMENT: false (0)

COMPOUND: COc1ccc([Si](C)(C)[C@@H]2[C@@H](CCO)O[C@]3(C(=O)N(Cc4cccc(N5CCOC5=O)c4)c4ccccc43)[C@H]2C)cc1
CLASS ASSIGNMENT: true (1)

COMPOUND: COCCCNC(=O)[C@@]1(CCS(=O)(=O)c2ccccc2)N=C(c2ccc(OCCCO)cc2)O[C@H]1c1ccccc1N=[N+]=[N-]
CLASS ASSIGNMENT: true (1)

Query: Would you say O=C1OCCC=C[C@H]2OC34C=CCN(Cn5nnc6ccccc65)C(=O)[C@H]3N(CCO)C(=O)[C@@H]4C12 (stereo not given in full) shows composite z-score at minimum -0.07?
Reply: false (0)

====

Biological target: Neurogenic locus notch homolog protein 3 (Homo sapiens) (UniProt Q9UM47)
Sequence (Q9UM47 whole entry, looked up): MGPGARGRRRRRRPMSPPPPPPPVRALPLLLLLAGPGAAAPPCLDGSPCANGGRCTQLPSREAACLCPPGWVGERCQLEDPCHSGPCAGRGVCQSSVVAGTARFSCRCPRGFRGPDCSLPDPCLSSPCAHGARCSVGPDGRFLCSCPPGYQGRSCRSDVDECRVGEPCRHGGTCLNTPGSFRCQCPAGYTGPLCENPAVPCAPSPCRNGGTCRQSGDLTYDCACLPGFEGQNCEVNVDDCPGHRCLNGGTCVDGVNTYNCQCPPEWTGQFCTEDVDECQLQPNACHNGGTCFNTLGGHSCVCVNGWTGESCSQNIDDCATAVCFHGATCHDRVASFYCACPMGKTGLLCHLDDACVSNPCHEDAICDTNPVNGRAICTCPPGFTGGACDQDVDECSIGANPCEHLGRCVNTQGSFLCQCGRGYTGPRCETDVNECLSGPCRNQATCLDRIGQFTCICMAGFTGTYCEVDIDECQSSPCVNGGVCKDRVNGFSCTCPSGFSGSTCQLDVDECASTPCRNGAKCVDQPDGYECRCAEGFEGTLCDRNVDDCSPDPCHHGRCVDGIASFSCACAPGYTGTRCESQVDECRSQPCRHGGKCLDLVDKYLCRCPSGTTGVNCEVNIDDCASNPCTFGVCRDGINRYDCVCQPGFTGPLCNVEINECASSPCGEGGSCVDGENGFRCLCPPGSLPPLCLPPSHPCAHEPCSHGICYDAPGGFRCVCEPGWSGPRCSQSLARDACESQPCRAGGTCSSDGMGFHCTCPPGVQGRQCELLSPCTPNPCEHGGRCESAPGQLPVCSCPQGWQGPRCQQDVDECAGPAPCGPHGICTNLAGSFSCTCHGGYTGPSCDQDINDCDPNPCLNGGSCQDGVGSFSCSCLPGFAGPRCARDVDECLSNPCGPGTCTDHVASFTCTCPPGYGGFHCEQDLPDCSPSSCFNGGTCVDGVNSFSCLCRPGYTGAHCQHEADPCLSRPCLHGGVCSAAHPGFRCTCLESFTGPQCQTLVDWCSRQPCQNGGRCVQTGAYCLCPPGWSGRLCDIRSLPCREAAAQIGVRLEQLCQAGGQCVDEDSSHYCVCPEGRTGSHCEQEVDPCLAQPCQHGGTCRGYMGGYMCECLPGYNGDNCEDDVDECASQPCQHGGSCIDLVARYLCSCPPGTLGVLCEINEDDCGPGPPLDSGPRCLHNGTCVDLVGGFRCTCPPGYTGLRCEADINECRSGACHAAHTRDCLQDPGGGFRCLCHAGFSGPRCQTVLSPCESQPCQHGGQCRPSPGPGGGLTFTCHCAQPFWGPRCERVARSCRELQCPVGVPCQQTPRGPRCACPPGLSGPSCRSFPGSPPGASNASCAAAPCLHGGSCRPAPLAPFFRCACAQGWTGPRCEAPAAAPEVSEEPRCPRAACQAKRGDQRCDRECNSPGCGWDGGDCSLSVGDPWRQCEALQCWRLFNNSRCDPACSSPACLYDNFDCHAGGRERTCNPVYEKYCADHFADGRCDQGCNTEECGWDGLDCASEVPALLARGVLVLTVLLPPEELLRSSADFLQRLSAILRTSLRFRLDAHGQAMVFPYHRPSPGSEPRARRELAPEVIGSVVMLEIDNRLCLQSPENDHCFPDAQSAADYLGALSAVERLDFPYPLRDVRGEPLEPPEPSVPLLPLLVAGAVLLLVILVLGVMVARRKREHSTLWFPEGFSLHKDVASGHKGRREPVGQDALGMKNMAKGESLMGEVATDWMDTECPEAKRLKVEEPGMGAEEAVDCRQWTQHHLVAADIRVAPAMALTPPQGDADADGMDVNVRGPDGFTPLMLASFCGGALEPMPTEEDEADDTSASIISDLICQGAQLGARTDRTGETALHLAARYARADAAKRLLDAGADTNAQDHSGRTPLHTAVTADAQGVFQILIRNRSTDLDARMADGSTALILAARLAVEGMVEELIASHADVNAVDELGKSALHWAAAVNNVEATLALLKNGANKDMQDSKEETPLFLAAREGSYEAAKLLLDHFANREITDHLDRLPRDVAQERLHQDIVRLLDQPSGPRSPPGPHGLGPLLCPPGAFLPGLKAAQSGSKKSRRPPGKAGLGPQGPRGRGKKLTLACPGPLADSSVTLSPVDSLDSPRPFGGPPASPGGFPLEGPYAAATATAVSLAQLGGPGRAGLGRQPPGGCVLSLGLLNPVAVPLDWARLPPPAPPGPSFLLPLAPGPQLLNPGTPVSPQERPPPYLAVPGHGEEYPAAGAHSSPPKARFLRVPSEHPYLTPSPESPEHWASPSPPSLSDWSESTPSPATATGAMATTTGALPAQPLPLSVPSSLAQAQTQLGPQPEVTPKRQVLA
Experiment: small molecules binding NOTCH3 protein – biochemical, 635/667 nm fluorescence, primary screen (AID 1096)
Details: small-molecule microarray, 635 nm fluorescence, higher = more signal
RESULT TYPE: composite z-score
Give bare numbers.

Below are worked cases with known answers.
COMPOUND: COC(=O)[C@]1(CCC(=O)OC(C)(C)C)N=C(c2ccc(OCCCO)cc2)O[C@@H]1c1ccccc1
composite z-score: 0.0628
//
COMPOUND: O=C1[C@H]2C=C(I)[C@H](C[C@@H]2OCCCCO)[C@@]12CO2
composite z-score: 0.186

Hi! Can you tell me composite z-score for each of these compounds?
1. C=CC[C@@]1(C(=O)N2CCCCC2)N=C(c2ccc(OCCCO)cc2)O[C@@H]1c1ccccc1N=[N+]=[N-]
2. O=C(NCc1ccccc1)[C@@H]1c2ccccc2C(=O)N(C2Cc3ccccc3C2)[C@H]1c1ccc(CO)cc1
3. O=C1O[C@@H](c2ccccc2)[C@@H](c2ccccc2)N2[C@@H](c3ccccc3OCCO)[C@]3(C(=O)Nc4ccc(C#CC5(O)CCCCCC5)cc43)[C@@H](C(=O)N3CCN(c4ncccn4)CC3)[C@H]12
4. CCOc1cc(C(O)C2C=CC3C(=O)N(c4ccccc4)C(=O)C3N2Nc2ccc(C(C)C)cc2)ccc1O (stereo not given)

Reply:
1.13
1.03
0.821
1.1

====

Assay: S6 kinase pathway phospho-S6 level changes – cell-based, A549, cytoblot, luminescence, serum-stimulated, primary screen (AID 1158);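 also: serum-stimulated A549 lung adenocarcinoma cells; signal is phosphorylated S6 detected by cytoblot immunostaining with HRP secondary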
Conditions: 5 h, higher = more signal
RESULT TYPE: z-score
One number for each entry.

Below are worked cases with known answers.
COMPOUND: O=C1NC(=O)C2C1C=CC(C(O)C1CC=CCC1)N2Nc1ccccn1 (stereo not given)
z-score: -0.259
//
COMPOUND: COCC(=C=CC[C@H](O)c1cccc(OCCO)c1)CCO
z-score: 0.0095
//
COMPOUND: CCOC(=O)C[C@H]1[C@H](OC(=O)c2ccc(C(=O)c3ccccc3)cc2)[C@@H](NC(=O)Cc2ccc(OC)cc2)c2cc(OCCCO)ccc2N1C(=O)c1ccc2ccccc2n1
z-score: -0.0822
//
COMPOUND: COCCCNC(=O)[C@@]1(Cc2ccccc2)N=C(c2ccc(OCCCO)cc2)O[C@H]1c1ccccc1CN=[N+]=[N-]
z-score: -0.443
//
COMPOUND: COc1cc(CO)cc(I)c1O[C@H]1C=C(C(=O)NCCO)C[C@@H](N(C(=O)c2cc3ccccc3oc2=O)C2CCCCCC2)[C@@H]1O
z-score: 1.95
//
COMPOUND: CS(=O)(=O)CCOC(=O)C1=CC(CCCO)=CC(C2CC2)N(Cc2cc3c(cc2Br)OCO3)C=C1C(=O)OCCS(C)(=O)=O (stereo not given)
z-score: 0.404
//
COMPOUND: CC#CC(=O)Oc1ccc(Br)cc1C=CC(=O)OCC
z-score: -0.27
//
COMPOUND: CCCC=C(CCC)[C@@H](NS(=O)(=O)c1ccc(Cl)cc1)c1ccc(C(=O)OC)cc1
z-score: 0.631
//
COMPOUND: CN1C(=O)C2C=CC(C(O)c3c(F)cccc3Cl)N(NC(=O)OC(C)(C)C)C2C1=O (stereo not given)
z-score: -1.11

Now turn to the next compound.
Query: Requested read-out: z-score. Entry: COC(=O)[C@@]1(CCC(=O)OC(C)(C)C)N=C(c2ccc(OCCCO)cc2)O[C@H]1c1ccccc1
Reply: 0.197

====

Experiment: small molecules captured by biotinylated probe aFST – biochemical, small-molecule microarray, fluorescence 635/667, stem cell growth factor project, primary screen (AID 1086);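 also: score merges 667 nm fluorescence with signal-to-noise of each printed compound spot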
Conditions: higher = more signal
RESULT TYPE: composite z-score
Give bare numbers.

Below are worked cases with known answers.
COMPOUND: C=CC[C@]1(C(=O)NCc2ccccc2)N=C(c2ccc(OCCCO)cc2)O[C@H]1c1ccccc1CN=[N+]=[N-]
RESULT TYPE: composite z-score
REPORTED MEASUREMENT: 1.02
--
COMPOUND: C[N+](C)(C)CCCC[C@@H]1NC(=O)[C@H]2C[C@@H](C(=O)NCCCCCCNC(=O)CS)[C@@H](c3ccc(O)cc3)N2C1=O
RESULT TYPE: composite z-score
REPORTED MEASUREMENT: -0.39
--
COMPOUND: Cc1ccc(S[C@]2(C(=O)O)CC(=O)N(C(C)C)[C@@H]2c2ccc(CO)cc2)cc1
RESULT TYPE: composite z-score
REPORTED MEASUREMENT: -0.735
--
COMPOUND: COc1cc2c(cc1O)C=[N+](Cc1cc3c(cc1Br)OCO3)CC2
RESULT TYPE: composite z-score
REPORTED MEASUREMENT: -0.332

Hi! Can you tell me composite z-score for each of these compounds?
1. O=C1C2C=CC(C(O)c3ccc(F)cc3)N(Nc3ccc([N+](=O)[O-])cc3)C2C(=O)N1c1ccccc1 (configuration not stated)
2. C=C(CCCC)/C(=C/C[C@@H](OC(C)=O)c1ccccc1OCCO)c1cc(C(=O)OC)ccc1OC
3. C=C(CCCC)/C(=C/C[C@@H](OC(C)=O)c1cccc(OCCO)c1)c1cnc2ccccc2c1
4. CCCCC(=C=CC[C@@H](O)c1ccc(CO)o1)CCO
5. COc1cc(CO)cc(I)c1O[C@H]1C=C(C(=O)NCCO)C[C@@H](N(C(=O)c2cc3ccccc3oc2=O)C2CCCCCC2)[C@@H]1O
6. CC(C)CCC[C@@H](C)[C@H]1CC[C@@]2(C)C3=C(CC[C@]12C)[C@@]1(C)CC[C@H](OC(=O)c2ccc(C(F)(F)F)nc2)C(C)(C)C1CC3 (some centres not stated)

Reply:
1. 1.02
2. -0.38
3. 0.219
4. -0.118
5. -0.0938
6. -0.108

Hi! Can you tell me composite z-score for each of these compounds?
1. CC(C)[Si](C#CCCCC#N)(Oc1ccccc1Br)C(C)C
2. CCCC=C(CCC)[C@@H](NS(=O)(=O)c1ccc(Cl)cc1)c1ccc(C(=O)OC)cc1

Reply:
1. 0.155
2. 0.0699
